- Measurement Target: mumps hemagglutinin neuraminidase (HN) globular head domain, monomeric (Mumps virus genotype G (strain not …))
Reported Property: binding result

Binder: G6 (antibody, V domains shown) VH: QIQLVQSGPELKKPGETVKISCKASGYTFTPYGLSWVKQAPGKVLKWMGWINTSSGVPTYADDFKGRFAFSLETSVSTAYLQINNLKNEDTATYFCARISVSFYYGLYFDYWGQGTTLTVSS VL: DIQMTQSPSSMSVSLGDTVSITCHASQGIANNIGWLQQKPGKSFKGLLYHGSTLEDGVPSRFSGSGSGAAYSLTISSLESEDFADYYCIQYAQLPYTFGGGTKLEIK
Reported Measurement: binds

Binder: C7 (antibody, V domains shown) VH: QITQKSEGSGILQPSQTLSLTCSFSGFSLNISGMGVGWIRQPSGKGLEWLAHIWWDDVKRYNPALKSRLTISKDTSSRQVFLKIASVDTADTATYYCVRIDNSYAMDYWGQGTSVTVSS VL: DIVLTQSPASLAVSLGQRATISCRASKSVSTSGYSYVHWFQQKPGQPPKLLIYLASNLESGVPARFSGSGSGTDFTLNIHPVEEEDAATYYCQHSRELPWTFGGGTKLEIK
Reported Measurement: binds

Binder: E10 (antibody, V domains shown) VH: EVQLQQSGAELVRPGSSVKLSCKASGYTFTWYWIDWMKQRPGQGLEWIGNIYPSDSEVQYNQKFKDRATLTLDKSSTTAYMQLSSLTSEDSAVYYCARRLYDYFALDFWGQGTSVTVSS VL: DIVMTQAAFSNPVTLGTSASISCRSSKSLQHSNGITYLYWYLQKPGQSPQLLIYQMSKFASGVPDRFSSSGSGTDFTLRISRVEAEDVGVYYCAQNLELPWTFGGGTKLEIK
Reported Measurement: binds
